- TEST SYSTEM: 3-hydroxyacyl-CoA dehydrogenase type-2 (Homo sapiens) (UniProt Q99714)
- EXPERIMENT NOTES: qHTS Assay for Inhibitors of HSD17B4, hydroxysteroid (17-beta) dehydrogenase 4;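 also: the protocol describes HADH2 (HSD17B10) and not the HSD17B4 of the title; nearly all actives have a fitted effect of over 70% in size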
- SETTINGS: recombinant HSD17B10, NADH fluorescence kinetic; series mostly up to 57.1 µM
- Experimental: Assay Overview: NIH Molecular Libraries Screening Centers Network [MLSCN] NIH Chemical Genomics Center [NCGC] Structural Genomics Consortium [SGC] […] An increase in the fluorescence intensity due to conversion of NAD+ to NADH was used to measure the enzyme activity. Assay Protocol: Buffer: 100 mM Tris-HCl pH 9.0, containing 0.01 % Tween-20. […] The fluorescence intensity difference between the last and the first time points was used to compute reaction progress.
Among all 75,000 compounds or so, about 5,700 (7.6%) were called active. Roughly 7% stayed inconclusive and do not appear here. Calls follow the shape of the dose curve; as a rule, active = well fitted inhibition curve with a large enough effect; inconclusive = small, poorly fitted or top-dose-only effect; inactive = no such curve, though single readings can be large or run the other way. For the sample, actives were picked, then their nearest neighbours and some compounds at random.
Write down the outcome that applies. Available outcomes: 1 (active), 0 (inactive)

Use these answered entries as a reference point.
[
  {
    "COMPOUND": "CCC[C@@H]1C[C@@]1(CCC)C(NS(=O)(=O)c1cccc2cccnc12)c1ccc(Cl)cc1 (stereo partly drawn)",
    "CLASS": 0
  },
  {
    "COMPOUND": "CCOC(=O)N1CCC(NC(=O)c2ccc3nc(N4CCOCC4)sc3c2)CC1",
    "CLASS": 0
  },
  {
    "COMPOUND": "CSc1ccc(-c2c(C#N)c(N)nc3c2c(C)nn3-c2ccccc2)cc1",
    "CLASS": 1
  },
  {
    "COMPOUND": "CCn1ncc(Br)c1C(=O)Nc1cc(C)ccc1F",
    "CLASS": 0
  },
  {
    "COMPOUND": "CC1=C(C(=O)Nc2ccc(Cl)cc2)C(c2ccco2)NC(=O)N1 (stereo not drawn)",
    "CLASS": 0
  },
  {
    "COMPOUND": "O=C(CCCN1C(=O)C2C3C=CC(C3)C2C1=O)N1CCN(c2ccccc2)CC1 (stereo not drawn)",
    "CLASS": 0
  },
  {
    "COMPOUND": "Cc1nc2cnc(N3CCN(C)CC3)nc2n(CCC#N)c1=O",
    "CLASS": 1
  }
]

Turning now to a further compound:
Recorded test outcome, item `OC(CCl)CCl`
0

Measured values drawn from PubChem BioAssay AID893 for this set.
